Biological target: UniProt P0DMS8
Sequence (P0DMS8 whole entry): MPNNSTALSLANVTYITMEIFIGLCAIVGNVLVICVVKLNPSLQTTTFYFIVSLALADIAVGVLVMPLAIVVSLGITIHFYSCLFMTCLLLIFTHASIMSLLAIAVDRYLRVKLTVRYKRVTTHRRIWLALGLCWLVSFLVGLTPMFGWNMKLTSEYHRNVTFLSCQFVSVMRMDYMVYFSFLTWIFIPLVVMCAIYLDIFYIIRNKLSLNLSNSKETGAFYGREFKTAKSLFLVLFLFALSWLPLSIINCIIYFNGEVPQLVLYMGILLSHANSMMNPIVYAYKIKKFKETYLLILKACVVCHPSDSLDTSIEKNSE
Test: Agonist activity at human adenosine A3 receptor expressed in CHO cells assessed as decrease in forskolin induced cAMP formation preincubated for 10 mins followed by forskolin challenge measured after 15 mins by AlphaScreen assay
ASSAY_METRIC: EC50 (nM)

>>> assay_result("CNC(=O)[C@H]1[Se][C@@H](n2cnc3c(NCc4cccc(I)c4)ncnc32)[C@H](O)[C@@H]1O")
2.7

====

Record set of Ki for target or system Adenosine receptor A1 (Homo sapiens, UniProt P30542).
ASSAY_METRIC: Ki

>>> assay_result("CNC(=O)[C@H]1[Se][C@@H](n2cnc3c(NCc4cccc(Br)c4)nc(Cl)nc32)[C@H](O)[C@@H]1O")
"156 nM"
>>> assay_result("CNC(=O)[C@H]1[Se][C@@H](n2cnc3c(NC4CCC4)ncnc32)[C@H](O)[C@@H]1O")
"37.5 nM"
>>> assay_result("CNC(=O)[C@H]1[Se][C@@H](n2cnc3c(NC4CC4)nc(Cl)nc32)[C@H](O)[C@@H]1O")
"186 nM"

The measured values listed here are drawn from ChEMBL document CHEMBL4007510.
